Every entry's value here was drawn from patent US9340577.

# tested system: T1, H-2Db (mouse)
# T1 chain 1: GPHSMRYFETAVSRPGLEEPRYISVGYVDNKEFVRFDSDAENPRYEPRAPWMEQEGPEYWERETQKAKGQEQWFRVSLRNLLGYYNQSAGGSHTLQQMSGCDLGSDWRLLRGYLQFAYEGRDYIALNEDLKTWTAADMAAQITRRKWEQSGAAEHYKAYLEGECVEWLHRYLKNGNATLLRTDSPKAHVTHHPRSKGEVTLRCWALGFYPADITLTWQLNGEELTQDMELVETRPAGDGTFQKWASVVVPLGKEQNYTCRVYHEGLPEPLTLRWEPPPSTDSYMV
# T1 chain 2: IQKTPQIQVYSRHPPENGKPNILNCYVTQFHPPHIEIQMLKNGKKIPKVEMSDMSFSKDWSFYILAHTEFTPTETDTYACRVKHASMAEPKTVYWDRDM
# experiment: competition
# condition label: modification not given
measurement type: IC50

binder: RPQASGVYM [LCMV NP 118]
measurement type: IC50
readout value: > 44 µM
//
binder: AAAAYAAM [F079.05]
measurement type: IC50
readout value: > 44 µM
//
binder: SIQFFGERAL [F079.03]
measurement type: IC50
readout value: > 44 µM
